tested on: CEM-DNR (daunorubicin resistant variant of CCRF-CEM); assay: MTS cytotoxicity assay, CEM-DNR; type: cell-based, human; conditions: Homo sapiens, CEM-DNR, 72 h, read-out: IC50 cytotoxic activity CEM-DNR
pIC50: −log10 of the molar value.
endpoint-name: pIC50

1) COc1c(Cn2cc([C@]3(O)CC[C@H]4[C@@H]5CCc6cc(O)ccc6[C@H]5CC[C@@]43C)nn2)cc(C)cc1Cn1cc([C@]2(O)CC[C@H]3[C@@H]4CCc5cc(O)ccc5[C@H]4CC[C@@]32C)nn1 :: 5.46
2) Cc1cc(C)c(Cn2cc([C@]3(O)CC[C@H]4[C@@H]5CCc6cc(O)ccc6[C@H]5CC[C@@]43C)nn2)cc1Cn1cc([C@]2(O)CC[C@H]3[C@@H]4CCc5cc(O)ccc5[C@H]4CC[C@@]32C)nn1 :: < 4.30
3) CC(=O)Oc1cc(Cn2cc([C@]3(O)CC[C@H]4[C@@H]5CCc6cc(O)ccc6[C@H]5CC[C@@]43C)nn2)cc(Cn2cc([C@]3(O)CC[C@H]4[C@@H]5CCc6cc(O)ccc6[C@H]5CC[C@@]43C)nn2)c1 :: < 4.30
4) C[C@]12CC[C@@H]3c4ccc(O)cc4CC[C@H]3[C@@H]1CC[C@@]2(O)c1cn(Cc2cccc(Cn3cc([C@]4(O)CC[C@H]5[C@@H]6CCc7cc(O)ccc7[C@H]6CC[C@@]54C)nn3)c2)nn1 :: < 4.30
5) CC(=O)Oc1c(Cn2cc([C@]3(O)CC[C@H]4[C@@H]5CCc6cc(O)ccc6[C@H]5CC[C@@]43C)nn2)cc(C)cc1Cn1cc([C@]2(O)CC[C@H]3[C@@H]4CCc5cc(O)ccc5[C@H]4CC[C@@]32C)nn1 :: < 4.30
6) Cc1cc(Cn2cc([C@]3(O)CC[C@H]4[C@@H]5CCc6cc(O)ccc6[C@H]5CC[C@@]43C)nn2)c(O)c(Cn2cc([C@]3(O)CC[C@H]4[C@@H]5CCc6cc(O)ccc6[C@H]5CC[C@@]43C)nn2)c1 :: < 4.30

###

test system: CCRF-CEM lymphoblasts; assay: Cell cycle analysis by flow cytometry (propidium iodide); assay type: cell-based, human; conditions: 5×IC50, 24 h
Measured G2/M, % of positive cells values are reported for all entries that follow.
endpoint-name: G2/M, % of positive cells (%)

1) C[C@]12CC[C@@H]3c4ccc(O)cc4CC[C@H]3[C@@H]1CC[C@@]2(O)c1cn(Cc2cc(Cn3cc([C@]4(O)CC[C@H]5[C@@H]6CCc7cc(O)ccc7[C@H]6CC[C@@]54C)nn3)cc(OCCO)c2)nn1 :: 61.48
2) CC(=O)Oc1c(Cn2cc([C@]3(O)CC[C@H]4[C@@H]5CCc6cc(O)ccc6[C@H]5CC[C@@]43C)nn2)cc(C)cc1Cn1cc([C@]2(O)CC[C@H]3[C@@H]4CCc5cc(O)ccc5[C@H]4CC[C@@]32C)nn1 :: 32.87
3) C[C@]12CC[C@@H]3c4ccc(O)cc4CC[C@H]3[C@@H]1CC[C@@]2(O)c1cn(Cc2cccc(Cn3cc([C@]4(O)CC[C@H]5[C@@H]6CCc7cc(O)ccc7[C@H]6CC[C@@]54C)nn3)c2)nn1 :: 75.07
4) COc1c(Cn2cc([C@]3(O)CC[C@H]4[C@@H]5CCc6cc(O)ccc6[C@H]5CC[C@@]43C)nn2)cc(C)cc1Cn1cc([C@]2(O)CC[C@H]3[C@@H]4CCc5cc(O)ccc5[C@H]4CC[C@@]32C)nn1 :: 78.93
5) C[C@]12CC[C@@H]3c4ccc(O)cc4CC[C@H]3[C@@H]1CC[C@@]2(O)c1cn(Cc2ccc(O)c(Cn3cc([C@]4(O)CC[C@H]5[C@@H]6CCc7cc(O)ccc7[C@H]6CC[C@@]54C)nn3)n2)nn1 :: 32.79
6) C[C@]12CC[C@@H]3c4ccc(O)cc4CC[C@H]3[C@@H]1CC[C@@]2(O)c1cn(Cc2cc(O)cc(Cn3cc([C@]4(O)CC[C@H]5[C@@H]6CCc7cc(O)ccc7[C@H]6CC[C@@]54C)nn3)c2)nn1 :: 58.40
7) COc1cc2c(cc1O)CC[C@@H]1[C@@H]2CC[C@]2(C)[C@@H](O)CC[C@@H]12 [ME, 2-methoxyestradiol, reference compound] :: 84.03
8) CC(=O)Oc1cc(Cn2cc([C@]3(O)CC[C@H]4[C@@H]5CCc6cc(O)ccc6[C@H]5CC[C@@]43C)nn2)cc(Cn2cc([C@]3(O)CC[C@H]4[C@@H]5CCc6cc(O)ccc6[C@H]5CC[C@@]43C)nn2)c1 :: 71.41
9) COc1cc(Cn2cc([C@]3(O)CC[C@H]4[C@@H]5CCc6cc(O)ccc6[C@H]5CC[C@@]43C)nn2)cc(Cn2cc([C@]3(O)CC[C@H]4[C@@H]5CCc6cc(O)ccc6[C@H]5CC[C@@]43C)nn2)c1 :: 71.67
10) Cc1cc(C)c(Cn2cc([C@]3(O)CC[C@H]4[C@@H]5CCc6cc(O)ccc6[C@H]5CC[C@@]43C)nn2)cc1Cn1cc([C@]2(O)CC[C@H]3[C@@H]4CCc5cc(O)ccc5[C@H]4CC[C@@]32C)nn1 :: 68.38

###

biological target: porcine brain tubulin (Sus scrofa, UniProt P02550+P02554); construct: purchased Cytoskeleton, Denver, CO; host or cells: porcine brain (tissue-purified); assay: Tubulin polymerisation assay; type: biochemical; details: 10 μmol/L, Vmax relative to DMSO
Sequence (P02550 whole entry): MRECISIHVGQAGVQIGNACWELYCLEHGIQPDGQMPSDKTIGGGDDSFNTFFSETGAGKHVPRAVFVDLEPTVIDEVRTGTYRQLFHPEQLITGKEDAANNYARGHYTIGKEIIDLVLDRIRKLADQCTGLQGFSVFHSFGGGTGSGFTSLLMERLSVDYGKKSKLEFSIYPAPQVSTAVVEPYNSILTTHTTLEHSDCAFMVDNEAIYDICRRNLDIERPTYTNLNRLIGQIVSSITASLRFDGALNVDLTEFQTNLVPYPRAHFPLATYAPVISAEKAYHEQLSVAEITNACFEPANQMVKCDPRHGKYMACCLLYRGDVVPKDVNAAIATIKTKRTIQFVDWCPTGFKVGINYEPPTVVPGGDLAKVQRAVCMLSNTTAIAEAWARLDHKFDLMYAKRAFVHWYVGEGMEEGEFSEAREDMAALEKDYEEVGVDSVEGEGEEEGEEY
Sequence (P02554 whole entry): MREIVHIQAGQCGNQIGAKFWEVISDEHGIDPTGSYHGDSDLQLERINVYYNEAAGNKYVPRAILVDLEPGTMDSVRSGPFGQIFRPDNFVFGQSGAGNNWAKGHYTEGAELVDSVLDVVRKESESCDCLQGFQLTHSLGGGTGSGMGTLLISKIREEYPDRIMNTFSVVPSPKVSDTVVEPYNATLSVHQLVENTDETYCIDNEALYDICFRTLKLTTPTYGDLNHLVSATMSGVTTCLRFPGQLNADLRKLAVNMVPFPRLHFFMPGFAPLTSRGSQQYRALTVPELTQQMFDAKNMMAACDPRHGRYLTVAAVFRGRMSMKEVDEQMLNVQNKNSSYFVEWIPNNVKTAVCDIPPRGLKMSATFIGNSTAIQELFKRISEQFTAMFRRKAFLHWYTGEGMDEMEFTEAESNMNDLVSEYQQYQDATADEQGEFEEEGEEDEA
endpoint-name: inhibitory activity against tubulin polymerisation (in words)

1) C[C@]12CC[C@@H]3c4ccc(O)cc4CC[C@H]3[C@@H]1CC[C@@]2(O)c1cn(Cc2c(Cl)c(Cl)c(Cl)c(Cn3cc([C@]4(O)CC[C@H]5[C@@H]6CCc7cc(O)ccc7[C@H]6CC[C@@]54C)nn3)c2Cl)nn1 :: inactive
2) Cc1cc(C)c(Cn2cc([C@]3(O)CC[C@H]4[C@@H]5CCc6cc(O)ccc6[C@H]5CC[C@@]43C)nn2)c(C)c1Cn1cc([C@]2(O)CC[C@H]3[C@@H]4CCc5cc(O)ccc5[C@H]4CC[C@@]32C)nn1 :: inactive

###

tested on: CCRF-CEM lymphoblasts; test: Cell cycle analysis by flow cytometry (propidium iodide); type: cell-based, human; conditions: 1×IC50, 24 h
Measured S, % of positive cells values are reported for all entries that follow.
endpoint-name: S, % of positive cells

1) COc1cc(Cn2cc([C@]3(O)CC[C@H]4[C@@H]5CCc6cc(O)ccc6[C@H]5CC[C@@]43C)nn2)cc(Cn2cc([C@]3(O)CC[C@H]4[C@@H]5CCc6cc(O)ccc6[C@H]5CC[C@@]43C)nn2)c1 [ED3] :: 22.67%
2) C[C@]12CC[C@@H]3c4ccc(O)cc4CC[C@H]3[C@@H]1CC[C@@]2(O)c1cn(Cc2cc(Cn3cc([C@]4(O)CC[C@H]5[C@@H]6CCc7cc(O)ccc7[C@H]6CC[C@@]54C)nn3)cc(OCCO)c2)nn1 [ED5] :: 37.57%
3) COc1c(Cn2cc([C@]3(O)CC[C@H]4[C@@H]5CCc6cc(O)ccc6[C@H]5CC[C@@]43C)nn2)cc(C)cc1Cn1cc([C@]2(O)CC[C@H]3[C@@H]4CCc5cc(O)ccc5[C@H]4CC[C@@]32C)nn1 [ED8] :: 33.47%

###

system: CCRF-CEM lymphoblasts; experiment: Cell cycle analysis by flow cytometry (propidium iodide); format: cell-based, human; conditions: 1×IC50, 24 h
Measured S, % of positive cells values are reported for all entries that follow.
endpoint-name: S, % of positive cells (%)

1. C[C@]12CC[C@@H]3c4ccc(O)cc4CC[C@H]3[C@@H]1CC[C@@]2(O)c1cn(Cc2cc(O)cc(Cn3cc([C@]4(O)CC[C@H]5[C@@H]6CCc7cc(O)ccc7[C@H]6CC[C@@]54C)nn3)c2)nn1 :: 32.78
2. Cc1cc(Cn2cc([C@]3(O)CC[C@H]4[C@@H]5CCc6cc(O)ccc6[C@H]5CC[C@@]43C)nn2)c(O)c(Cn2cc([C@]3(O)CC[C@H]4[C@@H]5CCc6cc(O)ccc6[C@H]5CC[C@@]43C)nn2)c1 :: 37.81
3. C[C@]12CC[C@@H]3c4ccc(O)cc4CC[C@H]3[C@@H]1CC[C@@]2(O)c1cn(Cc2cccc(Cn3cc([C@]4(O)CC[C@H]5[C@@H]6CCc7cc(O)ccc7[C@H]6CC[C@@]54C)nn3)c2)nn1 :: 25.01
4. COc1cc2c(cc1O)CC[C@@H]1[C@@H]2CC[C@]2(C)[C@@H](O)CC[C@@H]12 [ME, 2-methoxyestradiol, reference compound] :: 39.65

###

assay: MTS cytotoxicity assay, HUVEC; type: cell-based; conditions: human; MTS assay, 72-h incubation, mean ± SD of 3 independent experiments; read-out: IC50 cytotoxic activity HUVEC
endpoint-name: IC50 at 72 h

1) COc1cc2c(c(OC)c1OC)-c1ccc(OC)c(=O)cc1[C@@H](NC(C)=O)CC2 [Colchicine, reference compound] :: < 12.2 nM

Values from paper PMC467089
